List of protein stability index values.
B1: PPFIA4 (parent)
chain: PGVHRRYSALREESAKDWETSPLP

- Variants of: B1
- Assay: protein stability index of a GFP-peptide fusion (GPS, HEK-293T) (PSI 1-6); higher = more stable;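 note: lentivirally expressed fusions sorted by FACS into six bins by GFP to DsRed ratio, PSI derived from sequencing read proportions per bin multiplied by bin number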
- Experimental parameters: c terminus: a fixed tail appended

Which protein stability index value belongs to `S8W` ? 2.08

New cases:
Which protein stability index value belongs to `E19F` ? 2.4

Here is the next variant: `Y7T` 4.27

Here is the next variant: `R6G` 3.98

Here is the next variant: `R11V` 4.21

Here is the next variant: `S14Y` 3.46

Here is the next variant: `P22R` 3.18

Sourced from the supplement of paper PMC10567573
